Test: yeast display, Sf9 membrane polyspecificity reagent, FACS + sequencing; frameworks hold sequencing errors
experimental readout: polyreactivity (PSR sort gate)

seq string	result
QVQLVESGGGLVQAGGSLRLSCAASVYGMGWYRQAPGKERELVAAISNGGTTYYADSVKGRFTISRDNAKNTVYLQMNSLKPEDTAVYYCARSYRSDGSRFGYWGQGTQVTVSS	low polyreactivity
QVQLVESGGGLVQAGGSLRLSCAASGRTFDLYDMGWYRQAPGKERELVARISYNGGITYYADSVKGRFTISRDNAKNTVYLQMNSLKPEDTAVYYCDGRYRPHFGPLFEYDYWGQGTQVTVSS	low polyreactivity

====

Test: yeast display, Sf9 membrane polyspecificity reagent, FACS + sequencing; frameworks hold sequencing errors

seq string	polyreactivity (PSR sort gate)
QVQLVESGGGLVQAGGSLRLSCAASGFTFKSNAMGGYRQAPGKEREKVAAIDSRGDRTYYADSVKGRFTISRDNAKNTVYLQMNSLKPEDTAVYYCATKWRTYWSSGEYWGQGTQVTVSS	high polyreactivity
QVQLVESGGGLVQAGGSLRLSCAASGSIFARFAMGWYRQAPGKERELVAAISGRGGSTYYADSVKGRFTISRDNAKNTVYLQMNSLKPEDTAVYYCNAVGHTSIRRALDILDYWGQVTQVTVSS	high polyreactivity
QVQLVESGGGLVQEGGSLRLSCAASGFIFYRYTKGWYRQAPGKERELVAGISSRGTRTYYADSVKGRFTISRDNAKNTVYLQMNSLKPEDNAVYYCAKVDGSKRYNYWGQGTQVTVSS	high polyreactivity
QVQLVESGGGLVQAGGSLRLSCAASGRIFRYYAMGWYRQAPGKERELVAAIRGGGSTYYADSVKGRFTISRDNAKNTVYLQMNSLKPEDTAVYYCAAPLIISTLWYKRYDYWGQGTQVTVSS	high polyreactivity
QVQLVESGGGLVQAGGSLRLSCAASGFTFNYYAMGLYRQAPGKERELVARITSGGSTYYADSVKGRFTISRDNAKNTVYLQMNSLKPEDTAVYYCNVDVSVEVAYWGQGTQVTVSS	low polyreactivity
QGQRVESGGGLVQAGGSLRLSCAASGSTFPWYAMGWYRQARGSERELVAGISEGGASTYYADSVKGRFTISRDNAKNTVYLQMNSLNPEDTAVYYCAADQVGAVYWVGEYGYWGQGTHVTVSS	low polyreactivity
QVHLVESGGGLVQAGGSLRLSCAASGSTFAKYAMGWYRQAPRKERELDASIRLSGGSTYYADSVKGRFTISRDNAKTTVYLLMNSQKPEDTAVYYCNKQFATFYYGFDYYYWGQGTQVTVSS	low polyreactivity
QVQLVESGGGLVQAGGRLRLSSAASGSIFDLYAMGWYRQAPGKERELVASIRYSGGRTYYADSVKGRFTISRDNAKNSVYLQMNSLNPEDTAFYYCNRDGGYTFIMDYWGQGTQVTVSS	low polyreactivity
QVQLVESGGGLVQAGGSRRLSCAASGFTFPHYLGRYRQAPGKERELVAAIIVSGGSTSYADSVKGRFTMSRDNAKNTVYLQMNSLKPEDTAVYYCAKDLRFRLFSYPSDYWGQGTQVTVSS	low polyreactivity
QVQLVESGGGLVQAGGSLRLSCAASGRIYDYMGWYRQAPGKERELVAAITSSGVSTYYADSVKGRFTISRDNAKNTVYLQMNSLKPEDTAVYYCAAERVYIVWFTHEIFNYWGQGTQVTVSS	high polyreactivity
QVQLVESGGGLVQAGGSLRLSCAASGYTFPDYAMGWYRQAPGKERELVAAFRSGGGTNYADSVKGRFTISRDNAKNTVYLQMNSLKPEDTAVYYCAKEWAGGLYDYWGQGTQVTVSS	low polyreactivity
QVQLVESGGGLGQAGGSLSLTCAASGSIFARNAMGWYRQAPGKERELVAAISTGGGSTYYADSVKGRFTISRDNAQNTVYLQMNSLKPEETEVYYCAAVGRSYYGHDYWGQGTQVTVSS	low polyreactivity
QVQLVESGGGLVQAGGSLRLSCAASGRIFGTNAMGWYRQAPGKERELVATITRGGGNTYYADSVKGRFTISRDNAKNTVYLQMNSLKPEDTAVYYCAAKFNRFAWYSHYDYWGQGTLVTVSS	low polyreactivity
QVQLVESGGGLVQAGGSLRLSCAASGRIFTTYAMGWYRQAPGKERELVATITTTDTRTYADSVKGRFTISRDNAKNTVYLQMNSLKPEDTAVYYCAKDRLNKGRYYRAASDYWGQGTQVTVSS	low polyreactivity
QVQLVESGGGLVQAGGSLRLSCAASGSIFSYYAMGWYRQAPGKERELVAAISWSGTSTYYADSVKGRFTISRDNAKNTVYLQMNSLKPEDTAVYYCNAGDNPIFDLGQGTQVTVSS	high polyreactivity

====

Assay: yeast display, Sf9 membrane polyspecificity reagent, FACS + sequencing; frameworks hold sequencing errors
experimental readout: polyreactivity (PSR sort gate)

seq string	result
QVQLVESGGGLVQAGGSLRLSCAASGRTFRWNAMGWYRQAPGKERELVAAITKSGGSTYYADSVKGRFTISRDNAKNTVYLQMNSLIPEDTAVYYCNAEPPLYPWAYPSDSYNFWGQGTQVTVSS	low polyreactivity
QVQLVESGGGLVQAGGSLRLSCAASGSTFRDYAMGWYRQAPGKERELVAAITSGGSTNYADSVKGRFTISRDNAKNTVYLQMNSLKPEDTAVYYCNARYAGWYTPWGRQSVYSDDYWGQGTQVTVSS	low polyreactivity

====

Assay: yeast display, Sf9 membrane polyspecificity reagent, FACS + sequencing; frameworks hold sequencing errors

seq string	polyreactivity (PSR sort gate)
QVQLVESGGGLVQAGGSLRLSCAASGGTFSPYDMGWYRQAPGKERELVASITGSGGSTYYADSVKGRFTISRGNAKNTVYLQMNSLKPEETAVYYCAAQGYWTYWPYLLRLYDYWGQGTQVTVSS	low polyreactivity
QVQLVESGGGLVQAGGSLRLSCAASGFTFFSKYVMGWYSQAPRKERELVAAISSSGGTTYYADSVKGRFTISRDNAKNTVYLQMNSLKPEDTAVYYCAARLVSSTFQYNMYYWGQGTQVTVSS	high polyreactivity
QVQLVESGGGLVQAGGSLRLSCAASGGTFSTNAMGWYRQAPGKERELVAAISLSGGRTYADSVKGRFTISRDNAKNTVYLQMNSLKPEDTAVYYCNADSAGITRARSELDYWGQGTQVTVSS	low polyreactivity
QVQLQESGGSLVQAGGILRLSCAACGNIFPSAVMGWYRQALGKEREFVATINSGSYTYYADSVKVRFTISRDNAKNTVYLQMNSLKLDDSAVYYCAAYFKLPAWHTYWGQGTQVTVSS	low polyreactivity
QVQLEESGGGLVQAGGSLRLSCAASGITFSRYAMGWYRQATGKERELVARISSSGGSTNYADSVKGRFTISRDNAKNTVYLQMNSLKPEDSAVYYCAVATRGKVARRVTFDYWGQGTQVTVSS	high polyreactivity
QVQLVESGGGLVQAGGSLPLSCAASGRIFKDNAMGWYRQAPGNEREMVAAISSGASTSYADSVKGRFTISRDYAKNTVYLQRNSLKPEDTAVYYCNGGGDLYYPGWLFDYWGQGTQVTVSS	low polyreactivity
QVQLVESGGGLVQAGGSLRLSCAASASILGSNAMGWYSQAPGKEREFVAAITWTGGSTYYADSVKGRFTISRDNAKNTVYLQMNSLKPEDSAVYYWAKDVKYVKMDDWGQGTQVTVSS	low polyreactivity
QVQLVESGGGLVQAGGSLRLSCAASGRIFSTYVMGWYRQAPGKERELVAAITWSGGSTYYADSVKGRFTISRDNEKNTVYLQMNSLKPEDTAVYYCAADEIYGYDYWGQGTQVTVSS	high polyreactivity
QVQLVESGGGLVQAGGSLRLSCAASGFTFTGYAMGWYRQAPGKERELVAALTRGGGSTYYADSVKGRFTISRDNAKNTVYLQMNSLKPEDTAVYYCAAQRSRLIRISSPYYGHDYWGQGTQVTVSS	low polyreactivity
QVQLVESGGGLVQAGGSLRLSCAASGSIFRPNAMGWYRQAPGKERELVAAINTSDDSTYYADSVKGRFTISRDNAKNTVYLQMNSLKPEDTAVYYCASDGVVPGRFFWPAHEYDYWGQGTQVTVSS	low polyreactivity
QVHLVDSGVGLDQAGGILRLSCAASGSTFGFYALGWYRQSPGKERELVAAINSTGGSTYYADSVKGRFTISRDNAKNTVYLQMNSLKPEDTAVYYCNVDLYSLYDWGQGTQVTVSS	high polyreactivity
QVKLVESGGGLVQAGGTLRLSCAASGSISWVYAMGWYRQAPGKERELVADITDSGDSTYYADSVKGRFTISRDNAKNTVYLQMNSLKPEDTAVFYCAAVSGPFVQTSGNGEYDYCGQGTQVTVSS	low polyreactivity

====

Experiment: yeast display, Sf9 membrane polyspecificity reagent, FACS + sequencing; frameworks hold sequencing errors
experimental readout: polyreactivity (PSR sort gate)

seq string	experimental readout	result
QVQLVESGGGLVQAGGSLRLSCAASGYTFGIYTLGWYRQAPGKERELVADISSTGTTKYADSVKGRFTISRDNAKYTVYLQMNSLKPEDTAVYYCAVRPFWYRMDYWGQGTQVTVSS	polyreactivity (PSR sort gate)	low polyreactivity
QVQLVESGGGLVQAGGSLRLSCAASGRTFSSNTMGWYRQAPGKERELVAAISSTDSTYYADSVKGRFTISRDNAKNTVYLQMNSLKPEDTAVYYCNKVVGFRSYFGGYGYWGQGTQVTVSS	polyreactivity (PSR sort gate)	high polyreactivity
QFQLEESGRGLVQAGGSLRLSCAASGSTLSYNAMGCYRQAPGKERELVAAISGRGGSTSYADSVKGRFTITRDNAKKTVYLQMNRLKPVDTAVYYCIAGKYSSSAALYDYWGQGTQVTVSS	polyreactivity (PSR sort gate)	high polyreactivity
QVQLVESGGVLVQAGGSLRISCAASGFIFAYNAMGWYRQAPGKETELVAAISWNGGNTYYADSVKGRFTISRDNAKNTVYLQMNSLKPEDTAVYYCAAIPKPFRSYGYWGKGTQVTVSS	polyreactivity (PSR sort gate)	high polyreactivity
QVQLVESGGGLFKAGGSLRLSCAASGSIFRYYTMGWYRQAPGKERELVAAINGSGGSTYYADSVKGRFTISRDNAKNTVYLQMNSLKPEDTAVYYCNRVTKEYGLRQYYYWGQGTQVTVSS	polyreactivity (PSR sort gate)	low polyreactivity
